Assay Summary: In vivo pharmacokinetics in rats
Parameters: species or system male Wistar rats
Conditions: male, Wistar, rat, plasma, po, 3 mg/kg
Readout Label: AUC (ng·h/mL)
Give just the numeric value; ng·h/mL need not be written.

Query block: Name the recorded AUC of the item C=CC(=O)N1CC2CC(n3nc(-c4ccc(C(=O)Nc5ccccn5)cc4)c4c(N)ncnc43)CC2C1 (stereo not shown) [ZYBT1] in your answer.
Result block: 908

* * *

System Name: CYP2D6 (Homo sapiens, UniProt P10635)
Sequence (P10635 whole entry): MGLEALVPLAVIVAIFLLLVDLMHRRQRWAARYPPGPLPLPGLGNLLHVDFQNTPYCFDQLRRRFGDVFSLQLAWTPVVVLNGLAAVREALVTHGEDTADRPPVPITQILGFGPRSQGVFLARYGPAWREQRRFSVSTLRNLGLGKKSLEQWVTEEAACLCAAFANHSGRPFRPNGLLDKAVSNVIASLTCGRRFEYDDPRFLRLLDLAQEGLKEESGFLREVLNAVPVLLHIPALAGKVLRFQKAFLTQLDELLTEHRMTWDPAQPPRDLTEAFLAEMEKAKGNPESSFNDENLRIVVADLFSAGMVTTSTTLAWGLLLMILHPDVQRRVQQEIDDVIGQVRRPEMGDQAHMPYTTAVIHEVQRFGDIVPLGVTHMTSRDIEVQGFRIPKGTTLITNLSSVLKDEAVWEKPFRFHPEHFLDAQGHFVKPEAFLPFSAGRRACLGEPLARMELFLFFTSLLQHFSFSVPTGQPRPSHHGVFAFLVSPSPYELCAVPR
Readout Label: IC50

Query block: Name the recorded IC50 of the item C=CC(=O)N1CC2CC(n3nc(-c4ccc(C(=O)Nc5ccccn5)cc4)c4c(N)ncnc43)CC2C1 (stereo not shown) [ZYBT1] in your answer.
Result block: > 30 µM
